# reported melting point; entries follow

COMPOUND	melting point
O=C(NCCc1ccccc1)Nc1ccc2ncc(-c3ccccc3)nc2n1 [Compound 35]	250 °C (dec.)
C=C(C)CNC(=S)Nc1ccc2ncc(-c3ccc(OC)cc3)nc2n1 [Compound 3]	251 to 252 °C (dec.)
C=CCNC(=S)Nc1ccc2nc(-c3ccc(O)cc3)cnc2n1 [Compound 34]	260 °C (dec.)
C/C=C/NC(=S)Nc1ccc2nc(-c3ccc(O)cc3)c(-c3ccc(O)cc3)nc2n1 [Compound 33]	240 °C (dec.)
O=C(Nc1ccc(Cl)c(C(F)(F)F)c1)Nc1ccc2ncc(-c3ccccc3)nc2n1 [Compound 16]	250 °C
CC(C)NC(=S)Nc1ccc2ncc(-c3ccccc3)nc2n1 [Compound 19]	229 to 230 °C
S=C(NCc1ccccc1)Nc1ccc2ncc(-c3ccccc3)nc2n1 [Compound 13]	232 to 233 °C
COc1ccc(-c2cnc3ccc(NC(=S)Nc4ccc([N+](=O)[O-])cc4)nc3n2)cc1 [Compound 9]	250 to 251 °C (dec.)
CCNC(=O)Nc1ccc2nc(-c3ccccn3)c(-c3ccccn3)nc2n1 [Compound 36]	236 to 237 °C
C=CCNC(=S)Nc1ccc2nc(-c3ccc(O)cc3)c(-c3ccc(O)cc3)nc2n1 [Compound 32]	270 °C (dec.)
S=C(Nc1ccc2ncc(-c3ccccc3)nc2n1)NC1CC1 [Compound 11]	233 to 234 °C
C=C(C)CNC(=S)Nc1ccc2ncc(-c3ccccc3)nc2n1 [Compound 4]	225 to 226 °C (dec.)
O=C(Nc1ccc2ncc(-c3ccccc3)nc2n1)NC1CC1 [Compound 21]	158 to 160 °C
CNC(=S)Nc1ccc2ncc(-c3ccc([N+](=O)[O-])cc3)nc2n1 [Compound 22]	270 °C
O=[N+]([O-])c1ccc(NC(=S)Nc2ccc3ncc(-c4ccc5ccccc5c4)nc3n2)cc1 [Compound 8]	260 to 261 °C (dec.)
S=C(Nc1ccc2ncc(-c3ccccc3)nc2n1)NC1CCCCC1 [Compound 18]	230 to 232 °C
C=CCNC(=S)Nc1ccc2ncc(-c3ccc(C(=O)OCC)cc3)nc2n1 [Compound 26]	223 to 224 °C
C=CCNC(=S)Nc1ccc2ncc(-c3ccc(OC)cc3)nc2n1 [Compound 6]	240 to 241 °C (dec.)
C=CCNC(=S)Nc1ccc2ncc(-c3ccc([N+](=O)[O-])cc3)nc2n1 [Compound 24]	244 °C (dec.)
S=C(NCc1ccco1)Nc1ccc2ncc(-c3ccccc3)nc2n1 [Compound 20]	250 °C (dec.)
C=CCNC(=S)Nc1ccc2ncc(-c3ccc(O)cc3)nc2n1.Cl	160 to 161 °C (dec.)
O=C(NCCN1CCOCC1)Nc1ccc2ncc(-c3ccccc3)nc2n1 [Compound 17]	226 °C
C=CCNC(=S)Nc1ccc2ncc(-c3ccccc3)nc2n1 [Compound 1]	239 to 240 °C (dec.)
CNC(=S)Nc1ccc2ncc(-c3ccccc3)nc2n1 [Compound 12]	253 to 254 °C
C=CCNC(=S)Nc1ccc2ncc(-c3ccc4c(c3)OCO4)nc2n1 [Compound 28]	218 to 220 °C (dec.)
CC(C)(C)NC(=S)Nc1ccc2ncc(-c3ccccc3)nc2n1 [Compound 10]	227 °C (dec.)
C=CCNC(=S)Nc1ccc2ncc(-c3ccc(O)cc3)nc2n1 [Compound 30]	230 °C (dec.)
Cc1ccc(NC(=O)Nc2ccc3ncc(-c4ccccc4)nc3n2)cc1 [Compound 15]	298 to 299 °C
C=CCNC(=O)Nc1ccc2ncc(-c3ccc(O)cc3)nc2n1 [Compound 25]	240 °C (dec.)
C=CCNC(=S)Nc1ccc2ncc(-c3ccc4ccccc4c3)nc2n1 [Compound 5]	242 to 243 °C (dec.)
C=CCNC(=S)Nc1cnc2nc(-c3ccc([N+](=O)[O-])cc3)cnc2c1 [Compound 137]	250 °C (dec.)
C=CCNC(=S)Nc1ccc2ncc(-c3cccc(O)c3)nc2n1 [Compound 27]	205 °C (dec.)
CCNC(=O)Nc1ccc2nc(C)c(C)nc2n1 [Compound 37]	246 to 248 °C
Fc1ccc(NC(=S)Nc2ccc3ncc(-c4ccccc4)nc3n2)cc1 [Compound 14]	225 to 226 °C
